system: oilseed rape; experiment: Test C pre-/postemergence herbicide test; format: in vivo, Brassica napus; details: Preemergence, 62 g ai/ha; scale 0 to 100 (0 no effect, 100 complete control)
property: Oilseed Rape plant response rating
Give your answer as a number; write no unit.

For the compound shown here, CN1CC(c2cccc(C(F)(F)F)c2)C(C(=O)Nc2ccccc2F)C1=O (stereo not shown) , give the reported Oilseed Rape plant response rating.
0

// query: O=C1NCC(c2ccc(C(F)(F)F)cc2)C1C(=O)Nc1ccc(F)c(F)c1F (stereo not shown)
30

// query: O=C1NCC(c2ccc(C(F)(F)F)cc2)C1C(=O)Nc1ccccc1Cl (stereo not shown)
40

// query: O=C(Nc1ccccc1F)C1C(=S)NCC1c1cccc(C(F)(F)F)c1 (stereo not shown)
0

// query: O=C1NCC(c2ccc(C(F)(F)F)nc2)C1C(=O)Nc1ccccc1F (racemic)
35

// query: O=C1NCC(c2cc(F)cc(F)c2)C1C(=O)Nc1ccc(F)cc1F (racemic)
0

// query: O=C1NCC(c2cccc(Br)c2)C1C(=O)Nc1cccc(F)c1F (stereo not shown)
0

----------
system: soybean; test: Test C pre-/postemergence herbicide test; assay type: in vivo, Glycine max; details: Postemergence, 31 g ai/ha; scale 0 to 100 (0 no effect, 100 complete control)
property: Plant response rating, Soybean
Give your answer as a number; write no unit.

Request - read-out Plant response rating, Soybean | tested on soybean | compound Cc1cccc(NC(=O)C2C(=O)NCC2c2cccc(C(F)(F)F)c2)c1 (stereo not shown)
0

// query: O=C1NCC(c2cccc(OC(F)F)c2)C1C(=O)Nc1ccc(F)c(F)c1F (stereo not shown)
0

// query: O=C1NCC(c2cc(F)cc(F)c2)C1C(=O)Nc1cccc(F)c1F (racemic)
40

// query: O=C1NCC(c2cccc(C(F)(F)F)c2)C1C(=O)Nc1cccc(Cl)c1F (stereo not shown)
0

----------
For each entry below, report its Plant response rating, Foxtail, Giant value.
system: giant foxtail; experiment: Test A pre-/postemergence herbicide test; type: in vivo, Setaria faberii; details: preemergence; 500 g ai/ha; 0 to 100 scale, 0 is no effect and 100 is complete control

For the molecule shown here, O=C1NCC(c2ccc(-c3ccccc3C(F)(F)F)cc2)C1C(=O)Nc1cccc(F)c1F (centres unmarked) [Compound 236] , give the reported Plant response rating, Foxtail, Giant.
0

// query: O=C1NCC(c2cccc(C(F)(F)F)c2)C1C(=O)Nc1ccc(F)cc1F (racemic) [Compound 207]
90

// query: O=C1NCC(c2cc3ccccc3s2)C1C(=O)Nc1cccc(F)c1F (centres unmarked) [Compound 296]
0

// query: CC(C)(C)c1cccc(C2CNC(=O)C2C(=O)Nc2ccccc2C(F)(F)F)c1 (racemic) [Compound 201]
30

// query: O=C1NCC(c2ccc(OC(F)F)cc2)C1C(=O)Nc1ccccc1Br (centres unmarked) [Compound 225]
90

// query: O=C1NCC(c2cccc(OC(F)F)c2)C1C(=O)Nc1ccccc1Cl (centres unmarked) [Compound 229]
90

// query: O=C1NCC(c2cc3ccccc3o2)C1C(=O)Nc1ccccc1C(F)(F)F (centres unmarked) [Compound 283]
0

// query: O=C1NCC(c2cc3ccccc3o2)C1C(=O)Nc1cccc(F)c1F (centres unmarked) [Compound 282]
70

// query: O=C1NCC(c2ccc(OC(F)(F)F)cc2)C1C(=O)Nc1cccc(F)c1F (racemic) [Compound 257]
90

// query: O=C1NCC(c2ccc(C(F)(F)F)cc2F)C1C(=O)Nc1ccccc1F (racemic) [Compound 259]
90

// query: O=C1NCC(c2ccc(Cl)c(C(F)(F)F)c2)C1C(=O)Nc1cccc(F)c1F (racemic) [Compound 268]
80

// query: CN1CC(c2cccc(C(F)(F)F)c2)C(C(=O)Nc2ccccc2F)C1=O (centres unmarked) [Compound 277]
90

// query: O=C1NCC(c2ccc(Cl)c(C(F)(F)F)c2)C1C(=O)Nc1ccccc1C(F)(F)F (racemic) [Compound 269]
80

// query: CC(C)(C)c1cccc(C2CNC(=O)C2C(=O)Nc2cccc(F)c2F)c1 (racemic) [Compound 200]
80
